pIC50: −log10 of the molar value.
Let's go through some pIC50 measurements on human PHD2 (Homo sapiens (Human)) together.
Sequence (Q9GZT9 whole entry): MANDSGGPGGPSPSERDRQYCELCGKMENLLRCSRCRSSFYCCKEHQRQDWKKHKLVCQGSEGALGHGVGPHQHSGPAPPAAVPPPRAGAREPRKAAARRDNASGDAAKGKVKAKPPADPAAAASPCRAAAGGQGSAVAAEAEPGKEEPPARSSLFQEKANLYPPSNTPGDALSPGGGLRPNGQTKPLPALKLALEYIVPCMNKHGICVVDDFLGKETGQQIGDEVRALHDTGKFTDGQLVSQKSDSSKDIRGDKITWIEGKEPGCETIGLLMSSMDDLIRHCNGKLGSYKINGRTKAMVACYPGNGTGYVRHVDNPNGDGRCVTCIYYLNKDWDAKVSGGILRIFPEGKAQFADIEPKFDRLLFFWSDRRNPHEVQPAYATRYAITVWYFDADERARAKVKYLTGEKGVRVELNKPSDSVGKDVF
assay readout: pIC50

>>> print(df.to_string())
                            smiles_notation  assay_readout  experimental_value
0  Cc1cc(CN2CCC(O)=C(C(=O)NCC(=O)O)C2=O)cnc1Oc1ccc(Cl)cc1          pIC50                7.60
1  O=C(O)CNC(=O)C1=C(O)CCN(Cc2ccc(Oc3ncccn3)cc2)C1=O          pIC50                6.39
2  O=C(O)CNC(=O)C1=C(O)CCN(Cc2cnc(Oc3ccc(C4CC4)cc3)cn2)C1=O          pIC50                7.68
3  Cc1ccc(Oc2cnc(CN3CCC(O)=C(C(=O)NCC(=O)O)C3=O)cn2)cc1          pIC50                7.27
4  O=C(O)CNC(=O)C1=C(O)CCN(Cc2ccc(Oc3ccc(F)cn3)cc2)C1=O          pIC50                6.84
5  O=C(O)CNC(=O)C1=C(O)CCN(Cc2ccc(Oc3ccc(C(F)(F)F)cc3)nc2)C1=O          pIC50                7.62
6  Cc1cccc(Oc2ccc(CN3CCC(O)=C(C(=O)NCC(=O)O)C3=O)cc2)c1          pIC50                7.12
7  O=C(O)CNC(=O)C1=C(O)CCN(Cc2ccc(Oc3cccc(F)c3)cc2)C1=O          pIC50                7.20

Sourced from patent US9422240B2
